Molecular target: T1, EsCas13d, nuclease-dead (Eubacterium siraeum, UniProt B0MS50, R295A;H300A;R849A;H854A)
T1 sequence: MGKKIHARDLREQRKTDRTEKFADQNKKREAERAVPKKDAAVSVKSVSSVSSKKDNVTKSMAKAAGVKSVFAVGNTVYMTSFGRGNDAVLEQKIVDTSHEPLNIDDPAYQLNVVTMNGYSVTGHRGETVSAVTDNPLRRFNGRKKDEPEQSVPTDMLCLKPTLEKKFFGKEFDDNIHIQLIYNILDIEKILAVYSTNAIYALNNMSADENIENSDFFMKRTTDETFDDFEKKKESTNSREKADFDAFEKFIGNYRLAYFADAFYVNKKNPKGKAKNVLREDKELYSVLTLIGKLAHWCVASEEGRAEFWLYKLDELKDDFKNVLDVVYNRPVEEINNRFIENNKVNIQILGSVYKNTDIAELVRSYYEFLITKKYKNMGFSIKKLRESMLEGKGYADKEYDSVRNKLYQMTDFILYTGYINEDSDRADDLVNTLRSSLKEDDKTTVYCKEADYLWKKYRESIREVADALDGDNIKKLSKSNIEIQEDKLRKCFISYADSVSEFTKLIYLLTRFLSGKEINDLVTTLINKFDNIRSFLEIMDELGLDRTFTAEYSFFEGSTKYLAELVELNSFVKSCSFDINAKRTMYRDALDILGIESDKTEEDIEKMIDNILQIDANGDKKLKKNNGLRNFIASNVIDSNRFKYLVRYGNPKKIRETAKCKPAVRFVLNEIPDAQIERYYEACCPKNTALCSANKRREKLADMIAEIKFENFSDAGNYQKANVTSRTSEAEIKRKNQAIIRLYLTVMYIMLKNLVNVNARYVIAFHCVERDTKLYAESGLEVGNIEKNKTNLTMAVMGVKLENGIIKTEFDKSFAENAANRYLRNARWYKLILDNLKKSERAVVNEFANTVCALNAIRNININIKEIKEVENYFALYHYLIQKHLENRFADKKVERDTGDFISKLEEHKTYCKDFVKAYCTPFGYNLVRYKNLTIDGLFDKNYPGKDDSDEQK
Test: crRNA (strand 1, pre-loaded); Mg2+; 40 mM Tris-HCl pH 7.5, 150 mM NaCl, 6 mM MgCl2, 1 mM DTT, 0.1% Tween-20, 0.2 mg/ml BSA; 25 C; 10 min per concentration, then washed
Conditions: tags: His6-TwinStrep-SUMO cleaved; N-terminal SNAP kept (SNAP-Surface 488); label: 3' end held by stalled T7 RNA polymerase

| Binder | Kd |
| --- | --- |
| target 1 C4U,C6A (mixed) RNA 1: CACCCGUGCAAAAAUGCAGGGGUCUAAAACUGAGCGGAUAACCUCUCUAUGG RNA 2: GGGAAUGGAUCCACAUCUACGAAUUCGUACCAUAGAGAGGUUAUCAGUUCACCGAGAUCGGAAGAGCACACGU | 7.52 nM |
| target 1 C4G,C22U (mixed) RNA 1: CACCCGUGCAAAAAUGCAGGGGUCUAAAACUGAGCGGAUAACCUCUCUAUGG RNA 2: GGGAAUGGAUCCACAUCUACGAAUUCGUAUCAUAGAGAGGUUAUCCGGUCACCGAGAUCGGAAGAGCACACGU | 10 nM |
| target 1 C7U,U19G (mixed) RNA 1: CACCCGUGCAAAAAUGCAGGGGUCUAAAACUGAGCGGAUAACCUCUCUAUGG RNA 2: GGGAAUGGAUCCACAUCUACGAAUUCGUACCAGAGAGAGGUUAUUCGCUCACCGAGAUCGGAAGAGCACACGU | 57 nM |
| target 3 A5G,U7G (mixed) RNA 1: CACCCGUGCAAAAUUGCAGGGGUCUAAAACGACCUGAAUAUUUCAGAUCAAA RNA 2: GGGAAUGGAUCCACAUCUACGAAUUCGUUUUUGAUCUGAAAUAUGCGGGUCUGCAGAUCGGAAGAGCACACGU | 44 nM |
| target 1 del11,del13 (mixed) RNA 1: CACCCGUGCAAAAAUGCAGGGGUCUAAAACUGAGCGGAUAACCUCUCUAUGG RNA 2: GGGAAUGGAUCCACAUCUACGAAUUCGUACCAUAGAGAGUAUCCGCUCACCGAGAUCGGAAGAGCACACGU | 11.1 nM |
| target 3 del5,del6 (mixed) RNA 1: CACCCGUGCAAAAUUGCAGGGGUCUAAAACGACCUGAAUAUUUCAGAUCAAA RNA 2: GGGAAUGGAUCCACAUCUACGAAUUCGUUUUUGAUCUGAAAUAUUGGUCUGCAGAUCGGAAGAGCACACGU | 72 nM |
| target 1 insU 3' of 6,insG 3' of 3 (mixed) RNA 1: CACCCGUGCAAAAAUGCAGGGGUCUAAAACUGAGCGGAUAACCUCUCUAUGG RNA 2: GGGAAUGGAUCCACAUCUACGAAUUCGUACCAUAGAGAGGUUAUCCUGCUGCACCGAGAUCGGAAGAGCACACGU | 7.9 nM |
| target 3 insC 3' of 4,insA 3' of 1 (mixed) RNA 1: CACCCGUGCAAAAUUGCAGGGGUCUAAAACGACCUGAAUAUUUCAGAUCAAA RNA 2: GGGAAUGGAUCCACAUCUACGAAUUCGUUUUUGAUCUGAAAUAUUCAGCGUCAUGCAGAUCGGAAGAGCACACGU | 69.5 nM |
| target 1 MT 5'PFS AUG 3'PFS UCC (mixed) RNA 1: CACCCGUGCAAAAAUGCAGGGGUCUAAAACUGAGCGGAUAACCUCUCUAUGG RNA 2: GGGAAUGGAUCCACAUCUACGAAUUCAUGCCAUAGAGAGGUUAUCCGCUCAUCCAGAUCGGAAGAGCACACGU | 20 nM |
| target 3 insA 3' of 8,insA 3' of 6 (mixed) RNA 1: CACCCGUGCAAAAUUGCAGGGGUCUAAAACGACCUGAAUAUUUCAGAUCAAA RNA 2: GGGAAUGGAUCCACAUCUACGAAUUCGUUUUUGAUCUGAAAUAUAUCAAGGUCUGCAGAUCGGAAGAGCACACGU | 58.5 nM |
| target 2 MT 5'PFS GGG 3'PFS CGG (mixed) RNA 1: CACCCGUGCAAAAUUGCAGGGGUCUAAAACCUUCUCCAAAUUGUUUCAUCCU RNA 2: GGGAAUGGAUCCACAUCUACGAAUUCGGGAGGAUGAAACAAUUUGGAGAAGCGGAGAUCGGAAGAGCACACGU | 8.5 nM |
| target 1 insC 3' of 11 (mixed) RNA 1: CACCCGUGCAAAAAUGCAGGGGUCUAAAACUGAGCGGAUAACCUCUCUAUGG RNA 2: GGGAAUGGAUCCACAUCUACGAAUUCGUACCAUAGAGAGGUCUAUCCGCUCACCGAGAUCGGAAGAGCACACGU | 29.8 nM |
| target 2 MT 5'PFS GAC 3'PFS ACG (mixed) RNA 1: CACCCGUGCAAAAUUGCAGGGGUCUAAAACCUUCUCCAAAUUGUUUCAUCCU RNA 2: GGGAAUGGAUCCACAUCUACGAAUUCGACAGGAUGAAACAAUUUGGAGAAGACGAGAUCGGAAGAGCACACGU | 13.6 nM |
| target 3 del4,del6 (mixed) RNA 1: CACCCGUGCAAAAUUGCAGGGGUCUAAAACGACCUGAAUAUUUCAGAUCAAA RNA 2: GGGAAUGGAUCCACAUCUACGAAUUCGUUUUUGAUCUGAAAUAUUAGUCUGCAGAUCGGAAGAGCACACGU | 19 nM |
| target 1 MT 5'PFS GCA 3'PFS UCA (mixed) RNA 1: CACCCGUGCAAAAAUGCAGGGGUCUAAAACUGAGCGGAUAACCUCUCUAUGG RNA 2: GGGAAUGGAUCCACAUCUACGAAUUCGCACCAUAGAGAGGUUAUCCGCUCAUCAAGAUCGGAAGAGCACACGU | 11.8 nM |
